These entries and their values trace back to patent US20150011508A1.

Experimental system: c-kit (Homo sapiens, UniProt P10721)
Construct: human Mo7e cells which endogenously express c-kit; endogenous in cells; host or cells: human Mo7e cells (SCF-dependent promegakaryocytic leukemia line)
Sequence (P10721 26-976): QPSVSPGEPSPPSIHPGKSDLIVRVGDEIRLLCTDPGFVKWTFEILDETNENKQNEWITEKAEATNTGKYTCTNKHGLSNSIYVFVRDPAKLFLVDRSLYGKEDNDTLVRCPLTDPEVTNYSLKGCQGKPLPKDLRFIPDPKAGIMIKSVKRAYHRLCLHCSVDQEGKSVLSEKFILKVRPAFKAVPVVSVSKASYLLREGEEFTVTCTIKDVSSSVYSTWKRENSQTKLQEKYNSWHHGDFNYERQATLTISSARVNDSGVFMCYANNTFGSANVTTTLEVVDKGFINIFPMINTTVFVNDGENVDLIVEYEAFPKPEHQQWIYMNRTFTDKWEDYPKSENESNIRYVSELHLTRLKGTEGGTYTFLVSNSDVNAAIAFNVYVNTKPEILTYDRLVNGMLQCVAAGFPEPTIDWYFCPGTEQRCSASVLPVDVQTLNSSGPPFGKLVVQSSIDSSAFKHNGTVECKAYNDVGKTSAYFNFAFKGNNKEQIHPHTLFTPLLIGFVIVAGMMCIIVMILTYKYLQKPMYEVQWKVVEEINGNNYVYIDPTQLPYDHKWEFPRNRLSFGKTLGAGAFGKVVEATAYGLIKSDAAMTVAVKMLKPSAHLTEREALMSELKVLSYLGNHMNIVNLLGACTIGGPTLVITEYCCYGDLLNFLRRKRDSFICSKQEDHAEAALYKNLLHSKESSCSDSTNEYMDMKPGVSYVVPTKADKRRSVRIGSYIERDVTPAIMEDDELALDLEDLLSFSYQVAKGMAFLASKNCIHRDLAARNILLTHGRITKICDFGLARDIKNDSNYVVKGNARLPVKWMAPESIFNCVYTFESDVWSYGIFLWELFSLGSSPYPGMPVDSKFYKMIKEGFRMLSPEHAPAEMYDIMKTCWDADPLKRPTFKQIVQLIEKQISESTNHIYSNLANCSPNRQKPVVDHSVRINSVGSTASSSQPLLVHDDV
Assay text: Mo7e cell proliferation assay (SCF dependent proliferation)
Assay type: cell-based
Conditions: Table 1; human Mo7e cells stimulated with human recombinant SCF, 48 h, CellTiter Glo; 1% FBS (footnote)
pIC50: −log10 of the molar value.
Reported endpoint: pIC50

• Cc1ccc(-c2noc(COC(C)C(F)(F)F)n2)cc1NC(=O)c1cnc2ccccn12 (centres unmarked) = 7.96
• Cc1nc(-c2ccc(C)c(NC(=O)c3cnc4ccc(-c5c(C)nn(CCO)c5C)cn34)c2)no1 = 7.80
• Cc1ccc(-c2noc(CCCC(F)(F)F)n2)cc1NC(=O)c1cnc2ccccn12 = 8.30
• Cc1nc(-c2ccc(C)c(NC(=O)c3cnc4ccc(-c5cccnc5F)cn34)c2)no1 = 7.80
• Cc1nc(-c2ccc(C)c(NC(=O)c3cnc4ccc(-c5cnn(CCN6CCOCC6)c5)cn34)c2)no1 = 7.02
• Cc1ccn2c(C(=O)Nc3cc(-c4noc(CCC(C)(OC(=O)[C@H](C)N)C(F)(F)F)n4)ccc3C)cnc2c1 (some centres unmarked) = 8.10
• CNC(=O)Cn1nc(C)c(-c2ccc3ncc(C(=O)Nc4cc(-c5noc(C)n5)ccc4C)n3c2)c1C = 7.49
• CCOCCOCc1nc(-c2ccc(C)c(NC(=O)c3cnc4ccccn34)c2)no1 = 7.14

====

Experimental system: c-kit (Homo sapiens)
Construct: human Mo7e cells which endogenously express c-kit; endogenous in cells; host or cells: human Mo7e cells (SCF-dependent promegakaryocytic leukemia line)
Assay text: Mo7e cell proliferation assay (SCF dependent proliferation)
Assay type: cell-based
Conditions: Table 2; human Mo7e cells stimulated with human recombinant SCF, 48 h, CellTiter Glo; 1% FBS (footnote)
pIC50: −log10 of the molar value.
Here the recorded pIC50 is given for each entry.
Reported endpoint: pIC50

• COCc1n[nH]c(-c2ccc3ncc(C(=O)Nc4cc(-c5noc(C)n5)ccc4C)n3c2)n1 = 6.38
• Cc1nc(-c2ccc(C)c(NC(=O)c3cnc4ccc(-c5sc(C(=O)NCCN6CCN(C)CC6)nc5C)cn34)c2)no1 = 6.85
• Cc1nc(-c2ccc(C)c(NC(=O)c3cnc4ccc(-c5c(C)nn(CC(=O)NCCN6CCOCC6)c5C)cn34)c2)no1 = 6.71
• Cc1ccc(-c2noc(COCCO)n2)cc1NC(=O)c1cnc2ccccn12 = 6.72
• Cc1ccc(-c2noc(CC(C)(C)O)n2)cc1NC(=O)c1cnc2ccccn12 = 6.63
• Cc1ccc(-c2noc(COCCOCC(F)(F)F)n2)cc1NC(=O)c1cnc2ccc(F)cn12 = 6.98
• Cc1ccc(-c2noc([C@H](C)NS(C)(=O)=O)n2)cc1NC(=O)c1cnc2ccccn12 = 6.84
• COC(=O)NCc1nc(-c2ccc(C)c(NC(=O)c3cnc4cc(C#N)ccn34)c2)no1 = 6.11

====

Here the recorded log10(IC50) is given for each entry.
Experimental system: c-kit (Homo sapiens, UniProt P10721)
Construct: human Mo7e cells which endogenously express c-kit; endogenous in cells; host or cells: human Mo7e cells (SCF-dependent promegakaryocytic leukemia line)
Assay text: Mo7e cell proliferation assay (SCF dependent proliferation)
Assay type: cell-based
Conditions: Table 1; human Mo7e cells stimulated with human recombinant SCF, 48 h, CellTiter Glo; 1% FBS (footnote)
Reported endpoint: log10(IC50) (log10 of the value in nM)

• Cc1nc(-c2ccc(C)c(NC(=O)c3cnc4ccc(-c5c(C)n[nH]c5C)cn34)c2)no1 [F104] = 0.95
• Cc1ccc2ncc(C(=O)Nc3cc(-c4noc(CC[C@@](C)(O)C(F)(F)F)n4)ccc3C)n2c1 [F87] = 1.46
• Cc1nc(C)c(-c2ccc3ncc(C(=O)Nc4cc(-c5noc(COCC(F)(F)F)n5)ccc4C)n3c2)s1 [F91] = 0.78
• Cc1ccc(-c2noc(CNS(=O)(=O)C(C)C)n2)cc1NC(=O)c1cnc2ccccn12 [F25] = 1.90
• Cc1ccc(-c2noc(CCNC(=O)OC(C)(C)C)n2)cc1NC(=O)c1cnc2ccccn12 [F2] = 1.80
• Cc1nc(-c2ccc(C)c(NC(=O)c3cnc4ccc(-c5nc(C)c(C(N)=O)s5)cn34)c2)no1 [F259] = 1.95
• Cc1nc(-c2ccc(C)c(NC(=O)c3cnc4ccc(-c5c(C)noc5C)cn34)c2)no1 [F49] = 1.72
• Cc1ccc(-c2noc(CCC(C)O)n2)cc1NC(=O)c1cnc2ccccn12 (centres unmarked) [F9] = 1.94

====

Experimental system: c-kit (Homo sapiens)
Construct: human Mo7e cells which endogenously express c-kit; endogenous in cells; host or cells: human Mo7e cells (SCF-dependent promegakaryocytic leukemia line)
Assay text: Mo7e cell proliferation assay (SCF dependent proliferation)
Format: cell-based
Conditions: Table 2, values marked *: 20% FBS instead of 1% FBS
pIC50: −log10 of the molar value.
Reported endpoint: pIC50

* COCc1noc(-c2ccc(C)c(NC(=O)c3cnc4ccccn34)c2)n1 | 6.15

====

Experimental system: c-kit (Homo sapiens, UniProt P10721)
Construct: human Mo7e cells which endogenously express c-kit; endogenous in cells; host or cells: human Mo7e cells (SCF-dependent promegakaryocytic leukemia line)
Assay text: Mo7e cell proliferation assay (SCF dependent proliferation)
Format: cell-based
Conditions: Table 2; human Mo7e cells stimulated with human recombinant SCF, 48 h, CellTiter Glo; 1% FBS (footnote)
Here the recorded IC50 is given for each entry.
Reported endpoint: IC50 (nM)

* Cc1ccc(-c2noc(CNS(C)(=O)=O)n2)cc1NC(=O)c1cnc2ccccn12 | 124
* COCCOC(=O)NCc1nc(-c2ccc(C)c(NC(=O)c3cnc4ccccn34)c2)no1 | 512
* Cc1nc(-c2ccc(C)c(NC(=O)c3cnc4ccc(CCN5CCOCC5)cn34)c2)no1 | 691
* Cc1ccc(-c2noc(CNC(=O)N(C)C)n2)cc1NC(=O)c1cnc2ccccn12 | 965
* Cc1cc(-c2ccc3ncc(C(=O)Nc4cc(-c5noc(C)n5)ccc4C)n3c2)n(C)n1 | 223
* Cc1ccc(-c2noc(CC(=O)O)n2)cc1NC(=O)c1cnc2ccccn12 | 381
* COCCCc1nc(-c2ccc(F)c(NC(=O)c3cnc4ccccn34)c2)no1 | 394
* CC(=O)NCc1nc(-c2ccc(C)c(NC(=O)c3cnc4ccccn34)c2)no1 | 867
* Cc1ccc(-c2noc(CCC(C)(C)O)n2)cc1NC(=O)c1cnc2ccccn12 | 112

====

Experimental system: c-kit (Homo sapiens, UniProt P10721)
Construct: human Mo7e cells which endogenously express c-kit; endogenous in cells; host or cells: human Mo7e cells (SCF-dependent promegakaryocytic leukemia line)
Assay text: Mo7e cell proliferation assay (SCF dependent proliferation)
Assay type: cell-based
Conditions: Table 1; human Mo7e cells stimulated with human recombinant SCF, 48 h, CellTiter Glo; 1% FBS (footnote)
pIC50: −log10 of the molar value.
Reported endpoint: pIC50

* CCS(=O)(=O)NCc1nc(-c2ccc(C)c(NC(=O)c3cnc4ccccn34)c2)no1 | 7.21
* Cc1ccc(-c2noc(CN(C)C(=O)OC(C)(C)C)n2)cc1NC(=O)c1cnc2ccccn12 | 7.24
* [2H]C([2H])([2H])c1ccn2c(C(=O)Nc3cc(-c4noc(COCC(F)(F)F)n4)ccc3C)cnc2c1 | 8.05
* Cc1ccc(-c2noc(C(C)OCC(F)(F)F)n2)cc1NC(=O)c1cnc2ccccn12 (centres unmarked) | 7.96
* Cc1ccc(-c2noc(CNC(=O)OC(C)(C)C)n2)cc1NC(=O)c1cnc2ccccn12 | 8.10
* Cc1ccc(-c2noc(CC[C@](C)(O)C(F)(F)F)n2)cc1NC(=O)c1cnc2cc(F)ccn12 | 7.37
* Cc1ccc2ncc(C(=O)Nc3cc(-c4noc(CCC(C)(O)C(F)(F)F)n4)ccc3C)n2c1 (centres unmarked) | 7.46
* Cc1ccc(-c2noc(CC[C@](C)(O)C(F)(F)F)n2)cc1NC(=O)c1cnc2ccc(F)cn12 | 7.42
* Cc1nc(-c2ccc(C)c(NC(=O)c3cnc4ccc(-c5cscn5)cn34)c2)no1 | 7.30
* Cc1nc(-c2ccc(C)c(NC(=O)c3cnc4ccc(-c5c(C)nn(S(C)(=O)=O)c5C)cn34)c2)no1 | 7.42
* [2H]c1c([2H])c([2H])n2c(C(=O)Nc3cc(-c4noc(CCC(C)(O)C(F)(F)F)n4)ccc3C)cnc2c1[2H] (centres unmarked) | 7.60
* Cc1nc(-c2ccc(C)c(NC(=O)c3cnc4ccc(-c5scnc5C)cn34)c2)no1 | 7.42
* Cc1ccc(-c2noc(CNC(=O)C(F)(F)F)n2)cc1NC(=O)c1cnc2ccccn12 | 7.25
* Cc1ccc(-c2noc(CCC(C)(C)O)n2)cc1NC(=O)c1cnc2ccc(F)cn12 | 7.06
* Cc1ccc2ncc(C(=O)Nc3cc(-c4noc(CC[C@](C)(O)C(F)(F)F)n4)ccc3C)n2c1 | 7.52
* Cc1ccc(-c2noc(CCC(C)(O)C(F)(F)F)n2)cc1NC(=O)c1cnc2ccc(F)cn12 (centres unmarked) | 7.27
* Cc1nc(-c2ccc(C)c(NC(=O)c3cnc4ccc(-c5sc(C(N)=O)nc5C)cn34)c2)no1 | 7.42
